List of pEC50 values.
- System: U2OS_Bim cells
- ASSAY SUMMARY: Apoptosis inhibition assay (Bim-induced apoptosis, cell viability by ATP level)
- Type: cell-based
- EXPERIMENTAL CONTEXT: U2OS_Bim cells; means of duplicates; numbering of Tables 4a/4b; read-out: EC50
pEC50: −log10 of the molar value.

Solved entries:
# COMPOUND, pEC50
measured = [
    ("COc1ccc(Cn2cc(-c3cc(CF)nc(S(C)(=O)=O)n3)ccc2=O)cc1OC [Compound 161]", "6.00 to 9.00"),
    ("COc1ccc(Cn2cc(-c3cc(C(F)F)nc(S(=O)(=O)CCCS(=O)(=O)c4nc(-c5ccc(=O)n(Cc6ccc(OC)c(OC)c6)c5)cc(C(F)F)n4)n3)ccc2=O)cc1OC [Compound 186]", "6.00 to 9.00"),
]

Challenge: If you can, please state the reported pEC50 value of C[S+]([O-])c1nc(-c2ccc(=O)n(Cc3ccc4c(c3Br)OCO4)c2)cc(C(F)(F)F)n1 (stereo not drawn) [Compound 138] .
Response given: 6.00 to 9.00

Challenge: Let us now turn to O=c1c(F)cc(-c2cc(CF)nc(S(=O)(=O)CCC(OCc3ccccc3F)c3ccccc3)n2)cn1Cc1ccc2c(c1)OCO2 (stereo not drawn) [Compound 335]
Response given: 6.00 to 9.00

Challenge: Let us now turn to CS(=O)(=O)c1nc(-c2ccc(=O)n(Cc3ccc4c(c3Br)OCO4)c2)cc(C(F)(F)F)n1 [Compound 137]
Response given: 6.00 to 9.00

Challenge: Let us now turn to COc1ccc(Cn2cc(-c3nc(S(C)(=O)=O)nc(C(F)(F)F)c3Cl)ccc2=O)cc1OC [Compound 162]
Response given: 6.00 to 9.00

---

- Test system: U2OS_Bim cells
- ASSAY SUMMARY: Apoptosis inhibition assay (Bim-induced apoptosis, cell viability by ATP level)
- Type: cell-based
- EXPERIMENTAL CONTEXT: U2OS_Bim cells; means of duplicates; numbering of Tables 4a/4b; read-out: EC50
EXPERIMENTAL READOUT: EC50

Solved entries:
# MOLECULE, EC50
records = [
    ("CS(=O)(=O)c1nc(-c2ccc(=O)n(CCN=[N+]=[N-])c2)cc(C(F)(F)F)n1", "1000 to 10000 nM"),
    ("COc1ccc(Cn2cc(-c3cc(CF)nc(S(=O)(=O)CCC(OCc4ccccc4)c4ccccc4)n3)ccc2=O)cc1OC (stereo not shown)", "1 to 1000 nM"),
    ("CS(=O)(=O)c1nc(-c2cccs2)cc(N2CCOCC2)n1", "< 100000 nM"),
]

Challenge: # returns recorded EC50 (system: U2OS_Bim cells) for COc1cccc(-c2cc(C(F)(F)F)nc(S(C)(=O)=O)n2)c1
Response given: < 100000 nM

Challenge: Let us now turn to COc1ccc(Cn2cc(-c3cc(C(F)(F)F)nc(S(=O)(=O)CCCCO)n3)ccc2=O)cc1OC
Response given: 1 to 1000 nM

Challenge: Let us now turn to COc1ccc(Cn2cc(-c3cc(C(F)F)nc(S(=O)(=O)CCC(Cl)c4ccccc4)n3)ccc2=O)cc1OC (stereo not shown)
Response given: 1 to 1000 nM

Challenge: Let us now turn to COc1ccc(Cn2cc(-c3cc(C(F)(F)F)nc(S(=O)(=O)Cc4ccc(-c5ccccc5)cc4)n3)ccc2=O)cc1OC
Response given: 1 to 1000 nM

Challenge: Let us now turn to Cc1cc(-c2cc(F)c(=O)n(Cc3ccc4c(c3)OCO4)c2)nc(S(=O)(=O)CCC(OCc2ccc(F)cc2F)c2ccccc2)n1 (stereo not shown)
Response given: 1 to 1000 nM

Challenge: Let us now turn to COc1ccc(Cn2cc(-c3cc(C(F)F)nc(S(C)(=O)=O)n3)ccc2=O)cc1OC
Response given: 1 to 1000 nM

Challenge: Let us now turn to COc1ccc(Cn2cc(-c3cc(C)nc(S(=O)(=O)CCC(C)OCc4ccccc4F)n3)cc(F)c2=O)cc1F (stereo not shown)
Response given: 1 to 1000 nM

Challenge: Let us now turn to CS(=O)(=O)c1nc(-c2ccc(=O)n(Cc3ccc4ccccc4c3)c2)cc(C(F)(F)F)n1
Response given: 1000 to 10000 nM

Challenge: Let us now turn to CS(=O)(=O)c1nc(-c2ccc[nH]c2=O)cc(C(F)(F)F)n1
Response given: < 100000 nM

Challenge: Let us now turn to COc1ncccc1-c1cc(C(F)(F)F)nc(S(C)(=O)=O)n1
Response given: < 100000 nM

Challenge: Let us now turn to CS(=O)(=O)c1nc(-c2cccc(C#N)c2)cc(C(F)(F)F)n1
Response given: 1000 to 20000 nM

Challenge: Let us now turn to C[S+]([O-])c1nc(-c2ccn(Cc3ccc(Cl)cc3)c2)cc(C(F)(F)F)n1 (stereo not shown)
Response given: < 100000 nM

Challenge: Let us now turn to Cc1cccc(-c2cc(C(F)(F)F)nc(S(C)(=O)=O)n2)c1
Response given: 1000 to 10000 nM

Challenge: Let us now turn to COc1ccc(Cn2cc(-c3cc(C(F)(F)F)nc(S(C)(=O)=O)n3)ccc2=O)c(Cl)c1
Response given: 1 to 1000 nM

Challenge: Let us now turn to COc1ccc(Cn2cc(-c3cc(C(F)F)nc(S(=O)(=O)CCC(O)c4ccccc4)n3)ccc2=O)cc1F (stereo not shown)
Response given: 1 to 1000 nM

Challenge: Let us now turn to COc1ccc(Cn2cc(-c3nc(S(=O)(=O)CCC(OCc4ccccc4F)c4ccccc4)nc4sccc34)cc(F)c2=O)cc1F (stereo not shown)
Response given: 1 to 1000 nM

Challenge: Let us now turn to COc1ccc(Cn2cc(-c3cc(C(F)F)nc(S(=O)(=O)c4cccc(NC(C)=O)c4)n3)ccc2=O)cc1OC
Response given: 1 to 1000 nM

Challenge: Let us now turn to CS(=O)(=O)c1nc(-c2cccs2)cc(-c2cccs2)n1
Response given: 1000 to 10000 nM

Challenge: Let us now turn to COc1ccc(Cn2cc(-c3cc(C(F)(F)F)nc(S(C)(=O)=O)n3)ccc2=O)cc1OC
Response given: 1 to 1000 nM

Challenge: Let us now turn to CS(=O)(=O)c1nc(-c2ccc(=O)n(Cc3ccc(-n4cccn4)cc3)c2)cc(C(F)(F)F)n1
Response given: 1 to 1000 nM

Challenge: Let us now turn to COc1ccc(Cn2cc(-c3cc(=O)n(C)c(S(C)(=O)=O)n3)ccc2=O)cc1OC
Response given: < 100000 nM

Challenge: Let us now turn to COc1ncccc1-c1cc(C(F)(F)F)nc([S+](C)[O-])n1 (stereo not shown)
Response given: < 100000 nM

Challenge: Let us now turn to CCCCCCCS(=O)(=O)c1nc(-c2ccc(=O)n(Cc3ccc(OC)c(OC)c3)c2)cc(C(F)(F)F)n1
Response given: 1 to 1000 nM

// provenance: patent US11725000B2
